tested on: MCF-7 breast cancer cells; assay: Inhibition assay of the A crystal form of WX_1 on MCF-7 breast cancer cell proliferation (CellTiter-Glo); assay type: cell-based; conditions: Homo sapiens, MCF7, 144 h; MCF-7 cells, 6 days
readout name: IC50 (nM)

• CC(C)c1c2cc(-c3nc(Nc4ccc(N5CCNCC5)cn4)ncc3F)ccc2nn1C.O=C(O)/C=C\C(=O)O [A crystal form of compound WX_1] = 70
• CC(=O)c1c(C)c2cnc(Nc3ccc(N4CCNCC4)cn3)nc2n(C2CCCC2)c1=O = 88.2
• CCN1CCN(Cc2ccc(Nc3ncc(F)c(-c4cc(F)c5nc(C)n(C(C)C)c5c4)n3)nc2)CC1 = 185
